test system: UACC-62; assay: Cytotoxicity against human UACC62 cells assessed as cell growth at 10 uM after 48 hrs by SRB assay relative to untreated control; assay type: functional; conditions: UACC-62, 48 h, read-out: Activity
measured_attribute: growth at 10 µM (%)
Output spec: scalar in %, unitless text.

Solved entries (count: 6):
O=C1c2c(nc3ccccn23)NC(=O)N2CCC[C@@H]12 :: 104
C[C@@H]1NC(c2ccc(N(C)C)cc2)=Nc2nc3ccccn3c2C1=O :: 83.7
Cc1ccc(C2=Nc3nc4ccccn4c3C(=O)[C@H](Cc3ccccc3)N2)cc1 :: 93.2
COc1ccc(C2=Nc3nc4ccccn4c3C(=O)[C@H](C)N2)cc1 :: 94.3
C[C@@H]1NC(c2ccc(Br)cc2)=Nc2nc3ccccn3c2C1=O :: 49.2
O=C1c2c(nc3ccccn23)N=C(c2ccccc2)N2CCC[C@@H]12 :: 107

Query :: Quick check: growth at 10 µM on UACC-62, item Cc1ccccc1C1=Nc2nc3ccccn3c2C(=O)[C@H](Cc2ccccc2)N1 ?
Result :: 103

---

system: COLO 205; test: Cytotoxicity against human COLO205 cells assessed as cell growth at 10 uM after 48 hrs by SRB assay relative to untreated control; type: functional; conditions: COLO 205, 48 h, read-out: Activity
measured_attribute: growth at 10 µM
A complete answer gives the number and then names the unit.

Check out these entries, answers already filled in.
C[C@H]1NC(c2ccc(Br)cc2)=Nc2nc3ccccn3c2C1=O :: 106%
C[C@@H]1NC(c2ccc(Br)cc2)=Nc2nc3ccccn3c2C1=O :: 26.3%

// switching to the query compound
Query :: growth at 10 µM lookup needed for C[C@@H]1NC(c2ccccc2)=Nc2nc3ccccn3c2C1=O , thanks.
Result :: 109%

---

system: SN12C; experiment: Cytotoxicity against human SN12C cells assessed as cell growth at 10 uM after 48 hrs by SRB assay relative to untreated control; format: functional; conditions: read-out: Activity
measured_attribute: growth at 10 µM (%)
Give the number; % is assumed, so skip it.

Query :: Param readout= growth at 10 µM; system= SN12C; entry= Cc1ccc(C2=Nc3nc4ccccn4c3C(=O)[C@H](C)N2)cc1 ; returns value.
Result :: 93.9

Query :: And the next one, Cc1ccc(C2=Nc3nc4ccccn4c3C(=O)[C@H](Cc3ccccc3)N2)cc1 ?
Result :: 104

Query :: // same read-out, input: Cc1ccccc1C1=Nc2nc3ccccn3c2C(=O)[C@H](Cc2ccccc2)N1
Result :: 107

Query :: // query: C[C@@H]1NC(c2ccccc2)=Nc2nc3ccccn3c2C1=O
Result :: 112

Query :: Also, C[C@@H]1NC(c2ccc(N(C)C)cc2)=Nc2nc3ccccn3c2C1=O please.
Result :: 102

Query :: Likewise for C[C@@H]1NC(c2ccc(Br)cc2)=Nc2nc3ccccn3c2C1=O ?
Result :: 91.8

Query :: Would you mind doing O=C1c2c(nc3ccccn23)NC(=O)N2CCC[C@@H]12 as well?
Result :: 106

Query :: Param item: COc1ccc(C2=Nc3nc4ccccn4c3C(=O)[C@H](Cc3ccccc3)N2)cc1
Result :: 113

Query :: And the next one, C[C@H]1NC(c2ccc(Br)cc2)=Nc2nc3ccccn3c2C1=O ?
Result :: 94.6

Query :: Try this compound too: Cc1ccc(C2=Nc3nc4ccccn4c3C(=O)[C@@H]3CCCN23)cc1
Result :: 101

Query :: Param item: O=C1Nc2nc3ccccn3c2C(=O)[C@H](Cc2ccccc2)N1
Result :: 105

Query :: Try the compound O=C1c2c(nc3ccccn23)N=C(c2ccccc2)N2CCC[C@@H]12
Result :: 99.6

Query :: Thanks! And COc1ccc(C2=Nc3nc4ccccn4c3C(=O)[C@H](C)N2)cc1 ?
Result :: 97.7
